Biological target: T1, UNK ZnF1-3 (human, UniProt Q9C0B0 31-174)
T1 sequence: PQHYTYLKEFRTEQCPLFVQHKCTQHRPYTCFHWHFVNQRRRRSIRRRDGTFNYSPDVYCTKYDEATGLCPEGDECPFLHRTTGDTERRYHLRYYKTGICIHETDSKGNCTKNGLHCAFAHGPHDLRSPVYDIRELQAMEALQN
Assay: nsRBNS (natural sequence RNA bind-n-seq); RBNS binding buffer (assumed for nsRBNS): 25 mM Tris pH 7.5, 150 mM KCl, 3 mM MgCl2, 0.01% Triton X-100, 500 ug/ml BSA, 20 U/ml SUPERase-In, 4 C; UNK is unkempt and MSI1 is Musashi-1; names of the RNAs are library labels; protein concentration not given here; high values mean tight binding
In all, about 24,000 sequences were measured (“enrichment r”: median about 0.99, highest 2% from about 3.7 on). The sample as a whole holds a higher share of the highest values than the screen did.
Consider the following binders; for each one, report its binding signal.
Answers are plain numbers, in enrichment R.

Check out these entries, answers already filled in.
>  <Binder>
chr16:45382771:45382772:-_ENSMUSG00000022661_ENSMUST00000163230|mus_mus|mus_mus_mus_hu_True|18_28 (ssRNA) RNA: GGGAGUUCUACAGUCCGACGAUCCUGGGUCAUGUUAUAAGACAAAUGGACAGGGAGGGCAUGCUUCUCAAAAAAUGUGAGCUAUUGUCUAAGACUAACAAUAUUUACUAAGUGCUAUAAAAAUAAGAAAUGAAUAAGUUAAGACAACAGAGGAUUGAGCAUCA

>  <Observed result>
9.98

$$$$
>  <Binder>
chrX:98838459:98838460:+_ENSMUSG00000034160_ENSMUST00000044475|mus_mus|FALSE|FALSE (ssRNA) RNA: GGGAGUUCUACAGUCCGACGAUCUCCCAAAUUCGAAUAGGCUUCUGCUAGAAGGGGAUUCUGUUUAAUUGCCAAGGUGCUAAAAUGAGCAGAUCUGUCCAGCCUUCGACACUGGAAGUGUAUAGAUGAAAGUAAUAAAAGAACCAACAGAGGAUUGAGCAUCA

>  <Observed result>
1.64

$$$$

Look at this binder and give its reported binding signal. chr16:45382771:45382772:-_ENSMUSG00000022661_ENSMUST00000163230|mus_mus|mus_mus_mus_hu_True|28_88 (ssRNA) RNA: GGGAGUUCUACAGUCCGACGAUCCUGGGUCAUGUUAUAAGACAAAUGGAUAGGGAGGGCAUGCUUCUCAAAAAAUGUGAGCUAUUGUCUAAGACUAACAAUAUUUACUAAGUGCUAAAAAUAAGUUAAAUGAAUAAGUUAAGACAACAGAGGAUUGAGCAUCA 5.11
